- protocol.summary: AUC (0 to infinity) in Sprague-Dawley rat at 50 mg/kg, po measured upto 24 hrs by LC/MS/MS analysis
- Type: ADME, organism-based
- Set-up: time < 24 hrs, dose 50 mg/kg, route po
- condition.info: in vivo
Record form. Attribute: AUC(0-inf). Fill in for each entry.
Please don't drop the unit; write it after the number.

// query # lookup: AUC(0-inf) of `O=c1cc(N2CCN(CC3CCCCC3)CC2)sc2c([N+](=O)[O-])cc(C(F)(F)F)cc12`
// result 769 ng·h/mL

// query # lookup: AUC(0-inf) of `Cl.O=c1cc(N2CCN(CC3CCCCC3)CC2)sc2c([N+](=O)[O-])cc(C(F)(F)F)cc12`
// result 982 ng·h/mL

// query # lookup: AUC(0-inf) of `O=C(O)/C=C\C(=O)O.O=c1cc(N2CCN(CC3CCCCC3)CC2)sc2c([N+](=O)[O-])cc(C(F)(F)F)cc12`
// result 2180 ng·h/mL

====

Record form. Attribute: half-life. Fill in for each entry.
- protocol.summary: Elimination half life in Balb/c mouse at 5 mg/kg, iv measured upto 24 hrs by LC/MS/MS analysis
- Format: ADME, organism-based
- condition.info: in vivo, read-out: beta t1/2 (converted)
Answer format: numeric, h implied, no suffix.

// query # lookup: half-life of `O=C(O)C[C@H](O)C(=O)O.O=c1cc(N2CCN(CC3CCCCC3)CC2)sc2c([N+](=O)[O-])cc(C(F)(F)F)cc12`
// result 5.9

// query # lookup: half-life of `O=C(O)CC(O)(CC(=O)O)C(=O)O.O=c1cc(N2CCN(CC3CCCCC3)CC2)sc2c([N+](=O)[O-])cc(C(F)(F)F)cc12`
// result 6.67

// query # lookup: half-life of `O=C(O)/C=C/C(=O)O.O=C(O)/C=C/C(=O)O.O=C(O)/C=C/C(=O)O.O=c1cc(N2CCN(CC3CCCCC3)CC2)sc2c([N+](=O)[O-])cc(C(F)(F)F)cc12.O=c1cc(N2CCN(CC3CCCCC3)CC2)sc2c([N+](=O)[O-])cc(C(F)(F)F)cc12`
// result 6.98

// query # lookup: half-life of `Cl.O=c1cc(N2CCN(CC3CCCCC3)CC2)sc2c([N+](=O)[O-])cc(C(F)(F)F)cc12`
// result 7.59

// query # lookup: half-life of `O=C(O)/C=C\C(=O)O.O=c1cc(N2CCN(CC3CCCCC3)CC2)sc2c([N+](=O)[O-])cc(C(F)(F)F)cc12`
// result 6.61

// query # lookup: half-life of `O=c1cc(N2CCN(CC3CCCCC3)CC2)sc2c([N+](=O)[O-])cc(C(F)(F)F)cc12`
// result 6.54

====

- protocol.summary: Cmax in Balb/c mouse at 5 mg/kg, iv measured upto 24 hrs by LC/MS/MS analysis
- Type: ADME, organism-based
- Design: dose 5 mg/kg, time < 24 hrs, route iv
- condition.info: in vivo
Mark criterion not met for Cmax values under 4000 ng/mL, and criterion met for everything at or above.

// query In plain terms: is recorded Cmax at least 4000 ng/mL for `O=C(O)/C=C\C(=O)O.O=c1cc(N2CCN(CC3CCCCC3)CC2)sc2c([N+](=O)[O-])cc(C(F)(F)F)cc12` ?
// result criterion not met

// query In plain terms: is recorded Cmax at least 4000 ng/mL for `Cl.O=c1cc(N2CCN(CC3CCCCC3)CC2)sc2c([N+](=O)[O-])cc(C(F)(F)F)cc12` ?
// result criterion met

// query In plain terms: is recorded Cmax at least 4000 ng/mL for `O=C(O)/C=C/C(=O)O.O=C(O)/C=C/C(=O)O.O=C(O)/C=C/C(=O)O.O=c1cc(N2CCN(CC3CCCCC3)CC2)sc2c([N+](=O)[O-])cc(C(F)(F)F)cc12.O=c1cc(N2CCN(CC3CCCCC3)CC2)sc2c([N+](=O)[O-])cc(C(F)(F)F)cc12` ?
// result criterion not met

// query In plain terms: is recorded Cmax at least 4000 ng/mL for `O=C(O)CC(O)(CC(=O)O)C(=O)O.O=c1cc(N2CCN(CC3CCCCC3)CC2)sc2c([N+](=O)[O-])cc(C(F)(F)F)cc12` ?
// result criterion not met

// query In plain terms: is recorded Cmax at least 4000 ng/mL for `O=c1cc(N2CCN(CC3CCCCC3)CC2)sc2c([N+](=O)[O-])cc(C(F)(F)F)cc12` ?
// result criterion met

====

- protocol.summary: Elimination half life in Sprague-Dawley rat at 5 mg/kg, iv measured upto 24 hrs by LC/MS/MS analysis
- Assay type: ADME, organism-based
- condition.info: in vivo, read-out: beta t1/2 (converted)
Record form. Attribute: half-life. Fill in for each entry.
Answer format: numeric, h implied, no suffix.

// query # lookup: half-life of `O=c1cc(N2CCN(CC3CCCCC3)CC2)sc2c([N+](=O)[O-])cc(C(F)(F)F)cc12`
// result 8.27

// query # lookup: half-life of `O=C(O)/C=C\C(=O)O.O=c1cc(N2CCN(CC3CCCCC3)CC2)sc2c([N+](=O)[O-])cc(C(F)(F)F)cc12`
// result 6.43

// query # lookup: half-life of `Cl.O=c1cc(N2CCN(CC3CCCCC3)CC2)sc2c([N+](=O)[O-])cc(C(F)(F)F)cc12`
// result 7.92

====

- protocol.summary: Lipophilicity, log D of the compound in octanol/water at pH 2.0 incubated for 72 hrs under shaking condition by shake flask based HPLC-PDA method
- Assay type: physicochemical
- condition.info: pH 2
reported.property: logD at 72 h
The response must contain the number and no unit.

// query # lookup: logD at 72 h of `O=C(O)/C=C\C(=O)O.O=c1cc(N2CCN(CC3CCCCC3)CC2)sc2c([N+](=O)[O-])cc(C(F)(F)F)cc12`
// result 1.31

====

Record form. Attribute: AUC(0-t) at 24 h. Fill in for each entry.
- protocol.summary: AUC (0 to t) in Balb/c mouse at 5 mg/kg, iv measured upto 24 hrs by LC/MS/MS analysis
- Assay type: ADME, organism-based
- Design: time < 24 hrs, dose 5 mg/kg, route iv
- condition.info: Balb/c, in vivo
Answer format: numeric, ng·h/mL implied, no suffix.

// query # lookup: AUC(0-t) at 24 h of `O=C(O)/C=C\C(=O)O.O=c1cc(N2CCN(CC3CCCCC3)CC2)sc2c([N+](=O)[O-])cc(C(F)(F)F)cc12`
// result 2570

// query # lookup: AUC(0-t) at 24 h of `O=C(O)C[C@H](O)C(=O)O.O=c1cc(N2CCN(CC3CCCCC3)CC2)sc2c([N+](=O)[O-])cc(C(F)(F)F)cc12`
// result 2730

// query # lookup: AUC(0-t) at 24 h of `O=C(O)CC(O)(CC(=O)O)C(=O)O.O=c1cc(N2CCN(CC3CCCCC3)CC2)sc2c([N+](=O)[O-])cc(C(F)(F)F)cc12`
// result 2360

// query # lookup: AUC(0-t) at 24 h of `O=C(O)/C=C/C(=O)O.O=C(O)/C=C/C(=O)O.O=C(O)/C=C/C(=O)O.O=c1cc(N2CCN(CC3CCCCC3)CC2)sc2c([N+](=O)[O-])cc(C(F)(F)F)cc12.O=c1cc(N2CCN(CC3CCCCC3)CC2)sc2c([N+](=O)[O-])cc(C(F)(F)F)cc12`
// result 1990

====

- protocol.summary: Clearance in Sprague-Dawley rat at 5 mg/kg, iv measured upto 24 hrs by LC/MS/MS analysis
- Type: ADME, organism-based
- condition.info: in vivo
Record form. Attribute: clearance. Fill in for each entry.
Answer format: numeric, mL/min/kg implied, no suffix.

// query # lookup: clearance of `O=C(O)/C=C\C(=O)O.O=c1cc(N2CCN(CC3CCCCC3)CC2)sc2c([N+](=O)[O-])cc(C(F)(F)F)cc12`
// result 52.4

// query # lookup: clearance of `O=c1cc(N2CCN(CC3CCCCC3)CC2)sc2c([N+](=O)[O-])cc(C(F)(F)F)cc12`
// result 53.8

// query # lookup: clearance of `Cl.O=c1cc(N2CCN(CC3CCCCC3)CC2)sc2c([N+](=O)[O-])cc(C(F)(F)F)cc12`
// result 43.6

====

Record form. Attribute: Tmax. Fill in for each entry.
- protocol.summary: Tmax in Balb/c mouse at 50 mg/kg, po measured upto 24 hrs by LC/MS/MS analysis
- Assay type: ADME, organism-based
- condition.info: in vivo
Answer format: numeric, min implied, no suffix.

// query # lookup: Tmax of `O=C(O)CC(O)(CC(=O)O)C(=O)O.O=c1cc(N2CCN(CC3CCCCC3)CC2)sc2c([N+](=O)[O-])cc(C(F)(F)F)cc12`
// result 30

// query # lookup: Tmax of `O=C(O)/C=C/C(=O)O.O=C(O)/C=C/C(=O)O.O=C(O)/C=C/C(=O)O.O=c1cc(N2CCN(CC3CCCCC3)CC2)sc2c([N+](=O)[O-])cc(C(F)(F)F)cc12.O=c1cc(N2CCN(CC3CCCCC3)CC2)sc2c([N+](=O)[O-])cc(C(F)(F)F)cc12`
// result 40.2

// query # lookup: Tmax of `O=C(O)/C=C\C(=O)O.O=c1cc(N2CCN(CC3CCCCC3)CC2)sc2c([N+](=O)[O-])cc(C(F)(F)F)cc12`
// result 90

// query # lookup: Tmax of `O=c1cc(N2CCN(CC3CCCCC3)CC2)sc2c([N+](=O)[O-])cc(C(F)(F)F)cc12`
// result 30

// query # lookup: Tmax of `Cl.O=c1cc(N2CCN(CC3CCCCC3)CC2)sc2c([N+](=O)[O-])cc(C(F)(F)F)cc12`
// result 25.2

// query # lookup: Tmax of `O=C(O)C[C@H](O)C(=O)O.O=c1cc(N2CCN(CC3CCCCC3)CC2)sc2c([N+](=O)[O-])cc(C(F)(F)F)cc12`
// result 60
